Entry source: ChEMBL document CHEMBL1132199

molecular target: Leukotriene B4 receptor (Homo sapiens, UniProt Q9NPC1+Q15722); assay: In vitro leukotriene B4 receptor binding potency determined by displacement of [3H]- LTB4 from human neutrophils (PMNs)
measurement_kind: IC50 (nM)

# count of solved cases: 8
{"molecule": "CCN(CC)C(=O)/C=C(\\C)c1cc(OCC(=O)O)cc(OC(C)c2ccccc2)c1 (stereo not drawn)", "IC50 / nM": 84}
{"molecule": "CCN(CC)C(=O)/C=C(\\C)c1ccc(OC(C)c2ccccc2)c(O)c1 (stereo not drawn)", "IC50 / nM": 420}
{"molecule": "CCCN(CCC)C(=O)/C=C(\\C)c1ccc(OC(C)c2ccccc2)cc1 (stereo not drawn)", "IC50 / nM": 1400}
{"molecule": "CCN(CC)C(=O)/C=C(\\C)c1ccc(OC(C)c2ccccc2)c(OCCCC(=O)O)c1 (stereo not drawn)", "IC50 / nM": 216}
{"molecule": "CCN(CC)C(=O)/C=C(\\C)c1ccc(SCc2ccccc2)c(OCC(=O)O)c1", "IC50 / nM": 34}
{"molecule": "CCN(CC)C(=O)/C=C(\\C)c1ccc(O[C@@H](C)c2ccccc2)c(CC(=O)O)c1", "IC50 / nM": 39}
{"molecule": "CCN(CC)C(=O)/C=C(\\C)c1ccc(OC(C)c2ccccc2)c(OCCC(=O)O)c1 (stereo not drawn)", "IC50 / nM": 128}
{"molecule": "CCN(CC)C(=O)/C=C(\\C)c1ccc(OC(C)c2ccccc2)c(OCC(=O)O)c1 (stereo not drawn)", "IC50 / nM": 50}

(A) CCN(CC)C(=O)/C=C(\C)c1ccc(OC(C)c2ccccc2)cc1 (stereo not drawn)
(B) CCN(CC)C(=O)/C=C(\C)c1ccc(OC(c2ccccc2)c2ccccc2)c(OCC(=O)O)c1
(C) C/C(=C\C(=O)N(C(C)C)C(C)C)c1ccc(OC(C)c2ccccc2)cc1 (stereo not drawn)
(D) CCN(CC)C(=O)/C=C(\C)c1ccc(OCc2ccccc2)c(OCC(=O)O)c1
Prompt: hey, can you rank those molecules up there by IC50? biggest number first please Please, when replying, give the labels in the order that was requested.
Completion: C, A, D, B
(C: 1100 nM, A: 744 nM, D: 182 nM, B: 64 nM)

(1) CCN(CC)C(=O)/C=C(\C)c1ccc(OCc2c(F)cccc2F)c(OCC(=O)O)c1
(2) CCN(CC)C(=O)/C=C(\C)c1ccc(OCc2c(F)cccc2F)c(CC(=O)O)c1
(3) CCNC(=O)/C=C(\C)c1ccc(OC(C)c2ccccc2)cc1 (stereo not drawn)
(4) CCN(CC)C(=O)/C=C(\C)c1ccc(OC(C)c2ccccc2)c(C(=O)O)c1 (stereo not drawn)
(5) C/C(=C\C(=O)N1CCCCC1)c1ccc(OC(C)c2ccccc2)cc1 (stereo not drawn)
Prompt: // ranking: key=IC50, reverse=True Would you mind listing the labels in the order requested?
Completion: 5, 3, 4, 2, 1
(5: 5800 nM, 3: 2000 nM, 4: 884 nM, 2: 87 nM, 1: 56 nM)

(a) CCN(CC)C(=O)/C=C(\C)c1ccc(OC(C)c2ccccc2)c(CCC(=O)O)c1 (stereo not drawn)
(b) CCN(CC)C(=O)/C=C(\C)c1ccc(Oc2ccccc2)c(OCC(=O)O)c1
Prompt: Lab notebook, comparison: a versus b , higher IC50 goes to which? Kindly give the label for the entry you pick.
Completion: b
(b: 2400 nM, a: 48 nM)

(P) CCN(CC)C(=O)/C=C(\C)c1ccc(OCc2ccccc2Cl)c(OCC(=O)O)c1
(Q) CCN(CC)C(=O)/C=C(\C)c1ccc(OCc2ccccc2)cc1
Prompt: Lab note: record which item had the higher IC50, P or Q . Write the label of whichever entry you select.
Completion: Q
(Q: 7900 nM, P: 67 nM)
